Quick list: apparent KD of MS2 coat protein per entry.
system: MS2 coat protein; assay: apparent KD of MS2 coat protein; designed switch direction (-1 OFF switch, 1 ON switch): 1; higher = weaker reporter binding; conditions: input ligand: none
READOUT: apparent KD of MS2 coat protein (nM)

# SEQ, READOUT, MEAS VALUE
data = [
    ("GUAGCAUACCGAGGAUAUUCAUAUAAUAAAUACAUGAGGAUCACCCAUGUAAGGCGAAAGCCUUGGGAGAAGGCGGAAUGCUAC [Xeonanis - 20 Mod59] (Eterna round: R96, puzzle: Same State NG 2)", "apparent KD of MS2 coat protein", 36.3),
    ("GCUCGAUGUGUUGUCUACAUGAGGAUCACCCAUGUAGGUGCGGAGGAUAUCUACGUGCUUUAUGUAGAGAAGGUCGUAUCGAGC [SameState NG3 #86] (Eterna round: R96, puzzle: Same State NG 3)", "apparent KD of MS2 coat protein", 71.4),
    ("UGGUACAUGGGAGGAUAUCAUGUAGAAACAUGAGGAUCACCCAUGUUGAUGGAGACAUCGGAGAUUGAGAAGGCCCAUGUACCU [JL SSNG1 3.57] (Eterna round: R96, puzzle: Same State NG 2)", "apparent KD of MS2 coat protein", 46),
    ("GAGCCAGUCCGAGGAUAUUACAUGAGGAUCACCCAUGUAGGCUCAGAAAAGAAAAGAGAGCCUUGGGAGAAGGCGGACUGGCUC [Xeonanisa<<9] (Eterna round: R96, puzzle: Same State NG 2)", "apparent KD of MS2 coat protein", 39.1),
    ("UUAAUAAUGUUAGGAUAUACAUGAGGAAUCCUCGUAGAAGGAACAUGACAUGAGGAUCACCCAUGUAGCGCUCCGUAGAGCGCA [Mat - Same State NG 1 - JL mod - D45] (Eterna round: R96, puzzle: Same State NG 1)", "apparent KD of MS2 coat protein", 164),
    ("GGAGCCGGCCUAGGAUAUUUCAUAAACAAACAUGAGGAUCACCCAUGUAGGCCAGAAGGCCUUGGGAAGAAGGAGGUCGGCUCC [Loop Effect - C27] (Eterna round: R96, puzzle: Same State NG 2)", "apparent KD of MS2 coat protein", 45.2),
    ("UGGAGACGUCAAGGAUAUGCUACCGUUUCGGUAGCAGAAGGUGAUCACAUGAGGAUCACCCAUGUAUGCAUGCGUGAGCGUGCU [JL SSNG1 3.52] (Eterna round: R96, puzzle: Same State NG 1)", "apparent KD of MS2 coat protein", 6.24),
    ("AUUGCUUACGCAGGAUAUGAUGCGAAAAUUGCGUCAGAAGGGUGAAGUGACUCGUAGCAACAAGACAUGAGGAUCACCCAUGUC [SameState NG1 #93] (Eterna round: R96, puzzle: Same State NG 1)", "apparent KD of MS2 coat protein", 42.1),
    ("GUUCGGAAUCGAGCUGACAUGAGGAUCACCCAUGUUAGUGGGAAGGAUAUGGUACAGAAACUGUACCAGAAGGUCCUGCUGUCU [MOD2 Omei's SS(NG) 3 AV9] (Eterna round: R96, puzzle: Same State NG 3)", "apparent KD of MS2 coat protein", 59.5),
    ("CUGAAAUGUCAAGGAUAUCACGUCGAUUAGACGUGAGAAGGUGAUCUGCACAUGAGGAUCACCCAUGUGUUACAUGGGAGUCAG [Brourd's SSNG1/1-A2 mod 16] (Eterna round: R96, puzzle: Same State NG 1)", "apparent KD of MS2 coat protein", 891),
    ("AUUAUUAAUAUAGGAUAUGUAAAACAUGAGGAUCACCCAUGUGAUAUCGUGAGUAAGGAGAGAGAACAGAAGGAUAAUUUUUUU [JMF's solution 1] (Eterna round: R96, puzzle: Same State NG 2)", "apparent KD of MS2 coat protein", 41.3),
    ("CGACCAAUUGUUUAAUAAACAUGAGGAUCACCCAUGUUUCGUGAGGAUAUCUAGGGUGAAGCACGGGAGAAGGCACUACGGUCA [Eternabot solution 21] (Eterna round: R96, puzzle: Same State NG 3)", "apparent KD of MS2 coat protein", 134),
    ("AUUUCUAAUGCAGGAUAUGAUUAACAUGAGGAUCACCCAUGUGGUGUUGUGAGUAAGGAGAGUGAUCAGAAGGGCAUUUUUUUU [JMF's solution 99] (Eterna round: R96, puzzle: Same State NG 2)", "apparent KD of MS2 coat protein", 579),
    ("ACAAAGAACACAGGAUAUCGGAAAGGAAGUGUACGAGAAGGGUGGUCAACAGUACAUGAGGAUCACCCAUGUGGUGGAUGGCAA [PowerStrip SSNG 1.12] (Eterna round: R96, puzzle: Same State NG 1)", "apparent KD of MS2 coat protein", 1440),
    ("GCUCGAAUCACAACCAACAUGAGGAUCACCCAUGUGUGUUGGUAGGAUAUCGUUUCUAAGGGAAACGAGAAGGGCCGAACGAGC [SameState NG3 #8] (Eterna round: R96, puzzle: Same State NG 3)", "apparent KD of MS2 coat protein", 21.7),
    ("GGUCGGAACCACAUGAGGAUCACCCAUGUUCCGGAAACGGUACAGGAUAUCUGUCCGAAAAGGUCAGAGAAGGGUGAACCGACC [Fiskers NG3ss - 77] (Eterna round: R96, puzzle: Same State NG 3)", "apparent KD of MS2 coat protein", 312),
    ("UGGAUCUAGGCUUGCCUGGGUCCAUGCUGACAUGAGGAUCACCCAUGUGCAUCCUACAAGCUUUUUGCUUGUCUGCC (Eterna round: R96, puzzle: Sensor for hsa-mir-208a)", "apparent KD of MS2 coat protein", 216),
    ("AAAUAAAUGACUCAGGAUAUAUCAUAGAAUACAUGAGGAUCACCCAUGUUUUAAUAACAUGUUUGGUAGAAGGGAGUCAAUAAAU [LROPPY Same State 2 - v05_deltaG=1.86] (Eterna round: R96, puzzle: Same State 2)", "apparent KD of MS2 coat protein", 105),
]

====

test system: MS2 coat protein; assay: apparent KD of MS2 coat protein; designed switch direction (-1 OFF switch, 1 ON switch): -1; higher = weaker reporter binding; conditions: input ligand: FMN 200 uM
Assign class by apparent KD of MS2 coat protein: not lower than 70 nM means Fulfilled; lower than 70 nM means Not fulfilled.

# SEQ, CLASS
records = [
    ("UGAUCACAUGAGGAUCACCCAUGUCAGGAUAUCGUCACUGGAGCUGCGGCUCCAGUGACGAGAAGGGAUAUAAU [E1/5-A3] (Eterna round: R97, puzzle: Exclusion 1)", "Fulfilled"),
    ("GACUCAAUCCGAGGAUAUUGCCAGCGCUGCUAUCACAUGAGGAUCACCCAUGUAUCCUCGGCUUUCGAGAAGGCGGAUUGAGCG [Eternabot solution 35] (Eterna round: R96, puzzle: Exclusion NG 2)", "Fulfilled"),
    ("CAGGAGUCAGGAUAUCGUUACCACGGAGUUGCUGUGCAUAACGAGAAGGGACAUGAGGAUCACCCAUGUGCCUC [Eternabot (L1) Solution 98] (Eterna round: R97, puzzle: Exclusion 4)", "Not fulfilled"),
    ("CCGUUCCGUGUAGGAUAUUGGCCUACCACGGGCCGAGAAGGACAUGAGGAUCACCCAUGUAUGCUAUUAUCGCGCGUGGCGCCC [Design 99] (Eterna round: R96, puzzle: Exclusion NG 1)", "Not fulfilled"),
    ("AUAAUCGUAGGAUAUCAUUAGCCCUACAUGAGGAUCACCCAUGUGGGCUGGUGAGGGCGGUGAGAAGGACGAGAGA [EX5 B.1] (Eterna round: R97, puzzle: Exclusion 5)", "Not fulfilled"),
    ("AUGUUACAUGAGGAUCACCCAUGUGAGGAUAUGAGUCAGUCACGGUGACGUGGCUGACUCAGAAGGCACUAUGG [JL-ex1-4.39 salish99 mod] (Eterna round: R97, puzzle: Exclusion 1)", "Fulfilled"),
    ("GUCGUGUUAGGAUAUGCAUGUGGACGAUGUUCUCCGCCGGUGUAGAAGGAACAUGAGGAUCACCCAUGUGCCUA [Eternabot (L1) Solution 79] (Eterna round: R97, puzzle: Exclusion 4)", "Not fulfilled"),
    ("ACAAGCUUUUAGAUUUUCAACAUGAGGAUCACCCAUGUUCGUCUUAGGCUAGUGCGAGUGCGGUGUACUCGUAUUAG [JL TOV1 3.84 sellena mod] (Eterna round: R97, puzzle: Sensor, turn-off variant 1)", "Not fulfilled"),
    ("ACGCAUUGCCUUUGGUAGUGCGUAACAUGAGGAUCACCCAUGUAGGAUAUGGUAGGCAAAGCUUACCAGAAGGACAUAAUAAUU [Mat - Exclusion NG 3 - Mod of JL - D3] (Eterna round: R96, puzzle: Exclusion NG 3)", "Fulfilled"),
    ("CAGUAUCUAGGAUAUACGCUGGGUACUAUUCUCAAGUCAGGACAUGAGGAUCACCCAUGUAGAAGGAGAAGCAU [EX2 A.28] (Eterna round: R97, puzzle: Exclusion 2)", "Not fulfilled"),
    ("ACAAGCUUAGGUAAUCAUAACAUGAGGAUCACCCAUGUUCGUCUUAUAAAAAUAAAAAUAAAAAACAAAAAAUAAAA [Sensor V2: 65] (Eterna round: R96, puzzle: Sensor v2, turn-off variant)", "Not fulfilled"),
    ("UACACCACAUGAGGAUCAAACAUGAGGAUCACCCAUGUAUAACAAGCUUUUUGCUCGUCUUAUAAAUAUGUGGUGUA [Electric Eye 5 - Jieux - Sensor, turn-off variant 1] (Eterna round: R97, puzzle: Sensor, turn-off variant 1)", "Not fulfilled"),
    ("CCCUAGUAUGUAGGAUAUCGGUCAGUUUCUGAUCGAGAAGGACAUGAGGAUCACCCAUGUAAAACGUCCGGUUUCUGGAUAGGG [JL ENG1 3.56] (Eterna round: R96, puzzle: Exclusion NG 1)", "Fulfilled"),
    ("AGCUGUGGCCGAGGAUAUCACAUGAGGAUCACCCAUGUACAUGAUUAGGCCUGGUAACAGGCUCGUGAGAAGGCGGUCUCAGCA [Eli eng2 - 010] (Eterna round: R96, puzzle: Exclusion NG 2)", "Not fulfilled"),
    ("UUUACAAGCUUAUGAUCCCACAUGAGGAUCACCCAUGUUGCUGCCGGUGACGGUAGCAUAACAUAUGCUCGUCUUAU [JL TOV1 3.57] (Eterna round: R97, puzzle: Sensor, turn-off variant 1)", "Fulfilled"),
    ("GCAGCACAUGUAGGAUAUCUGCACGUGUAGUGCAGAGAAGGACAUGAGGAUCACCCAUGUAAUUAAGAUCAAUUAUUAAGCUGC [ENG1/3-C3] (Eterna round: R96, puzzle: Exclusion NG 1)", "Fulfilled"),
    ("GCUGGUCGAGGAUAUGCAAUCGUGCUUCGGCACGUAAGAUCACAUGAGGAUCACCCAUGUAGAAGGUGACCAGC [E2/3-B1] (Eterna round: R97, puzzle: Exclusion 2)", "Not fulfilled"),
    ("AUUUACAAGCUAAGAUCCUACAUGAGGAUCACCCAUGUGGUCCGGUGACGUGAGUCACCGGACUUAGCUCGUCUUGC [salish99_S_TOV1_R5_084] (Eterna round: R97, puzzle: Sensor, turn-off variant 1)", "Not fulfilled"),
]
